- Measurement Target: APJ (Homo sapiens)
- Construct: expressed in transfected cells; host or cells: CHO (CHO-A10; clone 6 for the cAMP assay)
- Test Protocol: Inhibitory activity on forskolin-stimulated cAMP production in CHO-A10 clone 6 cells
- Assay type: cell-based
- Condition Label: read-out: EC50
pEC50: −log10 of the molar value. Non-standard residues stand in square brackets, D forms with d. Residues, ends and D or L forms follow the SMILES beside them. Phe(4-Cl) = N[C@@H](Cc1ccc(Cl)cc1)C(=O)O; Cha = N[C@@H](CC1CCCCC1)C(=O)O
Parameter: pEC50. Scope: all listed entries.
Attribute Measured: pEC50

[[record]]
compound = "CSCC[C@H](NC(=O)[C@@H]1CCCN1C(=O)CNC(=O)[C@H](CCCCN)NC(=O)[C@H](Cc1c[nH]cn1)NC(=O)[C@H](CO)NC(=O)[C@H](CC(C)C)NC(=O)[C@H](CCCNC(=N)N)NC(=O)[C@@H]1CCCN1C(=O)[C@H](CCCNC(=N)N)NC(=O)[C@H](Cc1ccccc1)NC(=O)[C@H](CCCNC(=N)N)NC(=O)[C@@H](N)CCCNC(=N)N)C(=O)N1CCC[C@H]1C(=O)N[C@@H](Cc1ccccc1)C(=O)O [Compound in Ex. 33]"
measurement_target = "APJ (Homo sapiens)"
quantitative_result = 8.96

[[record]]
compound = "C[C@H](NC(=O)[C@H](CCCNC(=N)N)NC(=O)[C@@H]1CCCN1C(=O)[C@@H](N)CCCNC(=N)N)C(=O)N[C@@H](CO)C(=O)N[C@@H](Cc1c[nH]cn1)C(=O)N[C@@H](CCCCN)C(=O)NCC(=O)N1CCC[C@H]1C(=O)N[C@@H](CC1CCCCC1)C(=O)N1CCC[C@H]1C(=O)N[C@@H](Cc1ccc(Cl)cc1)C(=O)O [Compound in Ex. 57] (H-RPRASHKGP[Cha]P[Phe(4-Cl)]-OH; N-terminus and C-terminus assumed)"
measurement_target = "APJ (Homo sapiens)"
quantitative_result = 9.28

[[record]]
compound = "CSCC[C@H](NC(=O)[C@@H]1CCCN1C(=O)CNC(=O)[C@H](CCCNC(=N)N)NC(=O)[C@H](C)NC(=O)[C@H](CO)NC(=O)[C@H](CC(C)C)NC(=O)[C@H](CCCNC(=N)N)NC(=O)[C@@H]1CCCN1C(=O)[C@@H](N)CCCNC(=N)N)C(=O)N1CCC[C@H]1C(=O)N[C@@H](Cc1ccc(Cl)cc1)C(=O)O [Compound in Ex. 3] (H-RPRLSARGPMP[Phe(4-Cl)]-OH; N-terminus and C-terminus assumed)"
measurement_target = "APJ (Homo sapiens)"
quantitative_result = 9.49


====

Quick reference for pEC50 among some compounds
- Measurement Target: APJ (Homo sapiens, UniProt P35414)
- Construct: expressed in transfected cells; host or cells: CHO (CHO-A10; clone 6 for the cAMP assay)
- Sequence (P35414 1-380): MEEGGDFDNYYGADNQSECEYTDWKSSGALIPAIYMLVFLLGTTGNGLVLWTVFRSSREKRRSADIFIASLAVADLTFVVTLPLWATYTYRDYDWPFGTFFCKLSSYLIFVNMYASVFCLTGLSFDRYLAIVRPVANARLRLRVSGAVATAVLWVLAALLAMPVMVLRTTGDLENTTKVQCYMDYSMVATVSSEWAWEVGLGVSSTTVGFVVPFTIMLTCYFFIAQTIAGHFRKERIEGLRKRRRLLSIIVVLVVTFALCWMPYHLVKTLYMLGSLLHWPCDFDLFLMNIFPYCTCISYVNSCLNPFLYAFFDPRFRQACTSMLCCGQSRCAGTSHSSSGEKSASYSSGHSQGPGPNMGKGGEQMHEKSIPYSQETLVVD
- Test Protocol: Inhibitory activity on forskolin-stimulated cAMP production in CHO-A10 clone 6 cells
- Assay type: cell-based
- Condition Label: read-out: EC50
pEC50: −log10 of the molar value. Non-standard residues stand in square brackets, D forms with d. Residues, ends and D or L forms follow the SMILES beside them. *: point of attachment. Phe(4-Cl) = N[C@@H](Cc1ccc(Cl)cc1)C(=O)O; Lys(Me2) = CN(C)CCCC[C@H](N)C(=O)O; Cha = N[C@@H](CC1CCCCC1)C(=O)O; Morpholide = C1CN(*)CCO1
Attribute Measured: pEC50

[[record]]
compound = "CC(C)C[C@H](NC(=O)[C@H](CCCNC(=N)N)NC(=O)[C@@H]1CCCN1C(=O)[C@H](CCCNC(=N)N)NC(=O)[C@H](CCC(N)=O)NC(=O)[C@H](CCCNC(=N)N)NC(=O)[C@@H](N)CCCNC(=N)N)C(=O)N[C@@H](CO)C(=O)N[C@@H](C)C(=O)N[C@@H](CCCNC(=N)N)C(=O)NCC(=O)N1CCOCC1 [Compound in Ex. 52] (H-RRQRPRLSARG-Morpholide; N-terminus assumed)"
attribute_measured = "pEC50"
quantitative_result = 8.92

[[record]]
compound = "CC(C)C[C@H](NC(=O)[C@H](CCCNC(=N)N)NC(=O)[C@@H]1CCCN1C(=O)[C@@H](N)CCCNC(=N)N)C(=O)N[C@@H](CO)C(=O)N[C@@H](C)C(=O)N[C@@H](CCCNC(=N)N)C(=O)NCC(=O)N1CCC[C@H]1C(=O)N[C@@H](C)C(=O)N1CCC[C@H]1C(=O)N[C@@H](Cc1ccc(Cl)cc1)C(=O)O [Compound in Ex. 53] (H-RPRLSARGPAP[Phe(4-Cl)]-OH; N-terminus and C-terminus assumed)"
attribute_measured = "pEC50"
quantitative_result = 9.43

[[record]]
compound = "CSCC[C@H](NC(=O)[C@@H]1CCCN1C(=O)CNC(=O)[C@H](CCCNC(=N)N)NC(=O)[C@H](C)NC(=O)[C@H](CO)NC(=O)[C@H](CC(C)C)NC(=O)[C@H](CCCCN(C)C)NC(=O)[C@@H]1CCCN1C(=O)[C@@H](N)CCCNC(=N)N)C(=O)N1CCC[C@H]1C(=O)N[C@@H](Cc1ccccc1)C(=O)O [Compound in Ex. 63] (H-RP[Lys(Me2)]LSARGPMPF-OH; N-terminus and C-terminus assumed)"
attribute_measured = "pEC50"
quantitative_result = 9.48

[[record]]
compound = "CSCC[C@H](NC(=O)[C@@H]1CCCN1C(=O)CNC(=O)[C@H](CCCNC(=N)N)NC(=O)[C@H](C)NC(=O)[C@H](CO)NC(=O)[C@H](CC(C)C)NC(=O)[C@H](CCCNC(=N)N)NC(=O)[C@@H]1CCCN1C(=O)[C@H](CCCNC(=N)N)NC(=O)[C@H](CCC(N)=O)NC(=O)[C@H](CCCNC(=N)N)NC(=O)[C@@H](N)CCCNC(=N)N)C(=O)N1CCC[C@H]1C(=O)N[C@@H](Cc1ccccc1)C(=O)O [Compound in Ex. 17]"
attribute_measured = "pEC50"
quantitative_result = 9.41

[[record]]
compound = "CC(C)C[C@H](NC(=O)[C@H](CCCNC(=N)N)NC(=O)[C@@H]1CCCN1C(=O)[C@@H](N)CCCNC(=N)N)C(=O)N[C@@H](Cc1ccccc1)C(=O)N[C@@H](Cc1c[nH]cn1)C(=O)N[C@@H](CCCCN)C(=O)NCC(=O)N1CCC[C@H]1C(=O)N[C@@H](CC1CCCCC1)C(=O)N[C@@H](Cc1ccc(Cl)cc1)C(=O)O [Compound in Ex. 37] (H-RPRLFHKGP[Cha][Phe(4-Cl)]-OH; N-terminus and C-terminus assumed)"
attribute_measured = "pEC50"
quantitative_result = 9.37


====

- Measurement Target: APJ (Homo sapiens)
- Construct: expressed in transfected cells; host or cells: CHO (CHO-A10; clone 6 for the cAMP assay)
- Test Protocol: Inhibitory activity on forskolin-stimulated cAMP production in CHO-A10 clone 6 cells
- Assay type: cell-based
- Condition Label: read-out: EC50
Residues, ends and D or L forms follow the SMILES beside them.
Attribute Measured: EC50 (nM)

[[record]]
molecule = "CC(C)C[C@H](NC(=O)[C@H](CCCNC(=N)N)NC(=O)[C@@H]1CCCN1C(=O)[C@H](CCCNC(=N)N)NC(=O)[C@H](CCC(N)=O)NC(=O)[C@H](CCCNC(=N)N)NC(=O)[C@@H](N)CCCNC(=N)N)C(=O)N[C@@H](CO)C(=O)N[C@@H](Cc1c[nH]cn1)C(=O)N[C@@H](CCCCN)C(=O)NCC(=O)N1CCC[C@H]1C(=O)N[C@@H](CC[S+](C)[O-])C(=O)O (some centres unmarked) [Compound in Ex. 20]"
attribute_measured = "EC50"
result_unit = "nM"
quantitative_result = 0.48

[[record]]
molecule = "CC(C)C[C@H](NC(=O)[C@H](CCCNC(=N)N)NC(=O)[C@@H]1CCCN1C(=O)[C@H](CCCNC(=N)N)NC(=O)[C@H](CCC(N)=O)NC(=O)[C@H](CCCNC(=N)N)NC(=O)[C@@H](N)CCCNC(=N)N)C(=O)N[C@@H](CO)C(=O)N[C@@H](C)C(=O)N[C@@H](CCCNC(=N)N)C(=O)NCC(=O)N(C)C [Compound in Ex. 51] (H-RRQRPRLSARG-NMe2)"
attribute_measured = "EC50"
result_unit = "nM"
quantitative_result = 0.49

